Measured growth, listed per entry for reference.
- Tested on: NCI-H522 lung
- PROCEDURE_DETAILS: NCI-60 one-dose screen, 48 h (100 = growth as untreated, 0 = no growth, -100 = all killed)
- PARTICULARS: 10 µM unless noted
- Description: Growth inhibition of the NCI-H522 human Non-Small Cell Lung tumor cell line is measured as a screen for anti-cancer activity. Cells are grown in 96 well plates and exposed to the test compound for 48 hours. Compounds are tested at a single concentration, which is 10^-5 M for most compounds. The reported endpoint is percent growth (GI% or GIPRCNT), where numbers from 0 - 100% represent growth inhibition, and numbers from -100% - 0 represent cell death. […]
This is part of a sample that, as a whole, favours compounds with a hit. Of some 83,000 tested, about 20% had one in any assay.

SUBSTANCE_SMILES	VALUE_UNIT	growth
COC(=O)/C=C1/SC(=Nc2ccc(C(F)(F)F)cc2)N(CCc2c[nH]c3ccc(O)cc23)C1=O	%	-40.6
C#Cc1c2c(c(OC)c3c1OCO3)[C@H]([C@H]1OC(=O)c3c1ccc(OC)c3OC)N(C)CC2	%	60.3
COc1ccc(C(C)=O)cc1S(=O)(=O)Nc1c(N)nc(SC)[nH]c1=O	%	98.6
O=c1c2ccccc2n2cnc3ccc(Cl)c1c32	%	65.4
O=C(O)CCCN1C(=O)/C(=C/c2cn(-c3ccccc3)nc2-c2ccc([N+](=O)[O-])cc2)SC1=S	%	83.7
Clc1ccc2c(c1)C(c1c[nH]c3ccccc13)(c1c[nH]c3ccccc13)CCO2	%	-62.7
Nc1[nH]n2cc(-c3ccccc3)nc2c1N=Nc1ccc(S(N)(=O)=O)cc1	%	30.5
CCOc1nc(-c2ccccc2)cc2c(O)c(C(=O)N/N=C/c3ccccc3)[nH]c(=O)c12	%	74.4
OCCn1cc(-c2nc(-c3c[nH]c4ncccc34)cs2)c2cc(F)ccc21	%	45.5

Source listed as PubChem BioAssay (NCI).
